tested-on: B7-H4 purified monomeric recombinant human protein (Homo sapiens, UniProt Q7Z7D3)
Sequence (Q7Z7D3 25-259): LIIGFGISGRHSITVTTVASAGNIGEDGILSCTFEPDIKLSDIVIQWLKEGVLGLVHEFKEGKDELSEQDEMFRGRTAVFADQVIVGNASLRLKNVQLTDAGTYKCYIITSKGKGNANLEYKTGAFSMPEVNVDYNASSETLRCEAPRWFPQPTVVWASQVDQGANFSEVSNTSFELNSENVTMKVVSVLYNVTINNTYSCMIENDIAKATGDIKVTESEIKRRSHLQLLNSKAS
assay-procedure: SPR
property: Kd (nM)
# value in nM; strip the unit string

# count of solved cases: 6
# binder, unit-spec, Kd
measured = [
    ("B02 (scFv, V domains shown) VH: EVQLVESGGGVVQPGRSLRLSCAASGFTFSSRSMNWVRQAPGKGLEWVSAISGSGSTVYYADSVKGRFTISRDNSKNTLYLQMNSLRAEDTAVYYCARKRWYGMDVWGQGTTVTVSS VL: SYELTQPPSVSVAPGKTARITCGGNNIGVKSVHWYQQKPGQAPVLVVYDDSDRSPGIPERFSGSNSGNTATLTISRVEAGDEADYYCQVWDSRTYVFGTGTKLTVL", "nM", 0.059),
    ("A04 (scFv, V domains shown) VH: EVQLVESGGGVVQPGRSLRLSCAASGFTFSSRSMNWVRQAPGKGLEWVSAISGSGDTTYYADSVKGRFTISRDNSKNTLYLQMNSLRAEDTAVYYCARKRWYGMDVWGQGTTVTVSS VL: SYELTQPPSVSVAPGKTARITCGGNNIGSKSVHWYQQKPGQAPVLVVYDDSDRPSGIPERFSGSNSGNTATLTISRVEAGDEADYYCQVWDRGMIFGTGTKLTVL", "nM", 0.069),
    ("B11 (scFv, V domains shown) VH: EVQLVESGGGVVQPGRSLRLSCAASGFTFTSRAMNWVRQAPGKGLEWVSAISGSGATAYYADSVKGRFTISRDNSKNTLYLQMNSLRAEDTAVYYCARKRWYGMDVWGQGTTVTVSS VL: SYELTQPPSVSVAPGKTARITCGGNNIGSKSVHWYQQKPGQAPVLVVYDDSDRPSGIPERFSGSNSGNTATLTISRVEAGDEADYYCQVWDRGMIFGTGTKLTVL", "nM", 0.068),
    ("A05 (scFv, V domains shown) VH: EVQLVESGGGVVQPGRSLRLSCAASGFTYSSRAMNWVRQAPGKGLEWVSAISGSGSNAYYADSVKGRFTISRDNSKNTLYLQMNSLRAEDTAVYYCARKRWYGMDVWGQGTTVTVSS VL: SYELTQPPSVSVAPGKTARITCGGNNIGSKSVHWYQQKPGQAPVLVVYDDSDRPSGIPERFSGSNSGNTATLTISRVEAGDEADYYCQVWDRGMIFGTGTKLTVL", "nM", 0.117),
    ("A08 (scFv, V domains shown) VH: EVQLVESGGGVVQPGRSLRLSCAASGFTFGDRAMNWVRQAPGKGLEWVSAISSSGTTSYYADSVKGRFTISRDNSKNTLYLQMNSLRAEDTAVYYCARKRWYGMDVWGQGTTVTVSS VL: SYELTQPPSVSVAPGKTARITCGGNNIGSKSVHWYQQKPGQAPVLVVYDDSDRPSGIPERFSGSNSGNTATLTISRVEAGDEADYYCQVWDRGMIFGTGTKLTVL", "nM", 0.043),
    ("A10 (scFv, V domains shown) VH: EVQLVESGGGVVQPGRSLRLSCAASGFTFSSRSMNWVRQAPGKGLEWVSAISGTGYTTYYADSVKGRFTISRDNSKNTLYLQMNSLRAEDTAVYYCARKRWYGMDVWGQGTTVTVSS VL: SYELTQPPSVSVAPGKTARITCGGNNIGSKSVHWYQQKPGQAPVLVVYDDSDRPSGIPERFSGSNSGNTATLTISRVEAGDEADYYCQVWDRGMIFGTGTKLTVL", "nM", 0.103),
]

Hello, please tell me recorded Kd for this one: B12 (scFv, V domains shown) VH: EVQLVESGGGVVQPGRSLRLSCAASGFTFSDRAMNWVRQAPGKGLEWVSAISGTGASTYYADSVKGRFTISRDNSKNTLYLQMNSLRAEDTAVYYCARKRWYGMDVWGQGTTVTVSS VL: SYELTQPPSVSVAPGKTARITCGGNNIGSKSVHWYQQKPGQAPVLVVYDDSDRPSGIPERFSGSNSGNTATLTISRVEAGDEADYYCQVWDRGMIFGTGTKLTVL
0.084

Hello, please tell me recorded Kd for this one: B09 (scFv, V domains shown) VH: EVQLVESGGGVVQPGRSLRLSCAASGFTYSSRAMNWVRQAPGKGLEWVSAISSSGTTTYYADSVKGRFTISRDNSKNTLYLQMNSLRAEDTAVYYCARKRWYGMDVWGQGTTVTVSS VL: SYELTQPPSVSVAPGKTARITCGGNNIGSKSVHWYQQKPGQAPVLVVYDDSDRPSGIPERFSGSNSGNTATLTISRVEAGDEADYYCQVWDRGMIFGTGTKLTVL
0.118

// data source = paper PMC9467613
